Assay: AUC (0 to infinity) in C57/BL6 mouse blood at 2 mg/kg, iv administered as bolus dose measured upto 24 hrs by LC-MS/MS analysis
Format: ADME, organism-based
Set-up: route intravenous, dose 2 mg/kg, time <=24
Conditions: C57/BL6, mouse, blood

{"STRUCTURE": "Cc1cc(Nc2ccc(F)cc2)n(-c2nc(C(F)(F)F)cc(=O)[nH]2)n1", "AUC(0-inf) [µM·h]": 1.52}
{"STRUCTURE": "CCNc1cc(C)nn1-c1nc(-c2cccnc2)cc(=O)[nH]1", "AUC(0-inf) [µM·h]": 256}

* * *

Assay: Aqueous solubility of compound at pH 7.4
Type: physicochemical
Conditions: buffer
Items are presented alongside their recorded log10(solubility).
OBSERVATION TYPE: log10(solubility) (log10 of the value in µM)

{"STRUCTURE": "Cc1cc(C)n(-c2nc(-c3ccc(S(C)(=O)=O)cc3)cc(=O)[nH]2)n1", "OBSERVATION TYPE": "log10(solubility)", "NUMBER": 0.90}
{"STRUCTURE": "Cc1cc(C)n(-c2cc(-c3ccccc3)nc(=O)[nH]2)n1", "OBSERVATION TYPE": "log10(solubility)", "NUMBER": 1.48}
{"STRUCTURE": "Cc1cc(Nc2ccccn2)n(-c2nc(C(F)(F)F)cc(=O)[nH]2)n1", "OBSERVATION TYPE": "log10(solubility)", "NUMBER": 1.40}
{"STRUCTURE": "Cc1cc(Nc2ccc(C#N)cc2)n(-c2nc(C(F)(F)F)cc(=O)[nH]2)n1", "OBSERVATION TYPE": "log10(solubility)", "NUMBER": 1.88}
{"STRUCTURE": "Cc1cc(C)n(-c2nc3ccccc3c(=O)[nH]2)n1", "OBSERVATION TYPE": "log10(solubility)", "NUMBER": 2.18}
{"STRUCTURE": "Cc1cc(C)n(-c2nc(-c3ccc(NS(C)(=O)=O)cc3)cc(=O)[nH]2)n1", "OBSERVATION TYPE": "log10(solubility)", "NUMBER": 1.30}
{"STRUCTURE": "Cc1cc(C)n(-c2nc(-c3ccc(F)cc3)c(C(N)=O)c(=O)[nH]2)n1", "OBSERVATION TYPE": "log10(solubility)", "NUMBER": 2.04}
{"STRUCTURE": "Cc1cc(Nc2ccncc2)n(-c2nc(C(F)(F)F)cc(=O)[nH]2)n1", "OBSERVATION TYPE": "log10(solubility)", "NUMBER": 1.30}
{"STRUCTURE": "Cc1cc(C2CC2)n(-c2nc(C(F)(F)F)cc(=O)[nH]2)n1", "OBSERVATION TYPE": "log10(solubility)", "NUMBER": 2.20}
{"STRUCTURE": "Cc1cc(N)n(-c2nc(-c3ccccc3)cc(=O)[nH]2)n1", "OBSERVATION TYPE": "log10(solubility)", "NUMBER": 2.26}
{"STRUCTURE": "Cc1cc(Nc2ccc(N3CCOCC3)cn2)n(-c2nc(C(F)(F)F)cc(=O)[nH]2)n1", "OBSERVATION TYPE": "log10(solubility)", "NUMBER": 2.26}
{"STRUCTURE": "CCNc1cc(C)nn1-c1nc(-c2cccnc2)cc(=O)[nH]1", "OBSERVATION TYPE": "log10(solubility)", "NUMBER": 1.95}
{"STRUCTURE": "CC(=O)Nc1cc(C)nn1-c1nc(-c2ccccc2)cc(=O)[nH]1", "OBSERVATION TYPE": "log10(solubility)", "NUMBER": 2.18}
{"STRUCTURE": "Cc1cc(C(=O)N(C)C)nn1-c1nc(-c2ccc(F)cc2)cc(=O)[nH]1", "OBSERVATION TYPE": "log10(solubility)", "NUMBER": 1.81}
{"STRUCTURE": "Cc1cc(C)n(-c2nc(O)cc(-c3ccccc3)n2)n1", "OBSERVATION TYPE": "log10(solubility)", "NUMBER": 1.00}
{"STRUCTURE": "CCOc1cc(C)nn1-c1nc(C(F)(F)F)cc(=O)[nH]1", "OBSERVATION TYPE": "log10(solubility)", "NUMBER": 2.08}
{"STRUCTURE": "Cc1cc(C)n(-c2cc(=O)cc(-c3ccccc3)[nH]2)n1", "OBSERVATION TYPE": "log10(solubility)", "NUMBER": 2.08}
{"STRUCTURE": "Cc1cc(C)n(-c2nc(-c3ccc(F)cc3)cc(=O)[nH]2)n1", "OBSERVATION TYPE": "log10(solubility)", "NUMBER": 1.54}
{"STRUCTURE": "Cc1cc(NC2CCOCC2)n(-c2nc(C(F)(F)F)cc(=O)[nH]2)n1", "OBSERVATION TYPE": "log10(solubility)", "NUMBER": 1.70}
{"STRUCTURE": "Cc1nc(C)n(-c2nc(-c3ccccc3)cc(=O)[nH]2)n1", "OBSERVATION TYPE": "log10(solubility)", "NUMBER": 2.11}
{"STRUCTURE": "Cc1cc(C)n(-c2nc(-c3ccc(F)cc3)c(C#N)c(=O)[nH]2)n1", "OBSERVATION TYPE": "log10(solubility)", "NUMBER": 1.48}
{"STRUCTURE": "Cc1cc(C)n(-c2nc(-c3ccncc3)cc(=O)[nH]2)n1", "OBSERVATION TYPE": "log10(solubility)", "NUMBER": 2.26}
